Entries and their Topical LD50
- Tested on: tobacco budworm
- EXPERIMENTAL_DETAILS: Topical application, tobacco budworm
- Format: in vivo, Heliothis virescens
- TEST_CONDITIONS: TBW
Quick reminder: number only, in ng/insect, skip the unit.

# annotated cases, reported Topical LD50 shown
**Q:** Given Cc1c(COC(=O)C2C(C=C(Cl)Cl)C2(C)C)cccc1-c1ccco1 (mixture of isomers) , state its recorded Topical LD50.
**A:** 45

**Q:** Given Cc1c(COC(=O)[C@H]2[C@@H](C=C(Cl)C(F)(F)F)C2(C)C)cccc1-c1ccco1 (relative stereo) , state its recorded Topical LD50.
**A:** 46

Now look at this one.
**Q:** Given Cc1c(COC(=O)[C@H]2[C@@H](C=C(Br)Br)C2(C)C)cccc1-c1cccs1 (relative stereo) , state its recorded Topical LD50.
**A:** 177

###

- Test system: Mexican bean beetle
- EXPERIMENTAL_DETAILS: Foliar application, Mexican bean beetle
- Type: in vivo
- TEST_CONDITIONS: Epilachna varivestis; MBB, foliar, 512 ppm, 48 hours; read-out: Foliar % Kill (ppm)
- Description: Foliar Application: The activity of some of the compounds of the invention against various test species selected from pea aphid (Acyrthosiphon pisum), twospotted spider mite (Tetranychus urticae), southern armyworm (Spodoptera eridania), Mexican bean beetle (Epilachna varivestis), and cabbage looper (Tricoplusia ni) was determined by foliar application of the test compound. […] Mortality was read approximately 48 hours after treatment.
Entries and their mortality at 512 ppm
Quick reminder: number only, in %, skip the unit.

# annotated cases, reported mortality at 512 ppm shown
**Q:** Given Cc1c(COC(=O)[C@H]2[C@@H](C=C(Cl)Cl)C2(C)C)cccc1-c1cccs1 (relative stereo) , state its recorded mortality at 512 ppm.
**A:** 100

**Q:** Given Cc1c(COC(=O)[C@H]2[C@H](C=C(Cl)Cl)C2(C)C)cccc1-c1cccs1 (relative stereo) , state its recorded mortality at 512 ppm.
**A:** 100

**Q:** Given CC1(C)[C@H](C=C(Cl)Cl)[C@@H]1C(=O)OCc1cccc(-c2ccco2)c1 (relative stereo) , state its recorded mortality at 512 ppm.
**A:** 50

**Q:** Given CC1(C)[C@H](C=C(Cl)C(F)(F)F)[C@@H]1C(=O)OCc1cccc(-c2ccco2)c1 (relative stereo) , state its recorded mortality at 512 ppm.
**A:** 100

Now look at this one.
**Q:** Given CC1(C)[C@H](C=C(Cl)Cl)[C@@H]1C(=O)OCc1cccc(-c2cccs2)c1 (relative stereo) , state its recorded mortality at 512 ppm.
**A:** 80

###

- System: Mexican bean beetle
- EXPERIMENTAL_DETAILS: Topical application, Mexican bean beetle
- Type: in vivo, Epilachna varivestis
- TEST_CONDITIONS: MBB
# Fulfilled = Topical LD50 below 70 ng/insect (exclusive); Not fulfilled = Topical LD50 at/above 70 ng/insect

**Q:** Decide: Topical LD50 of Cc1c(COC(=O)[C@@H]2[C@H](C=C(Cl)Cl)C2(C)C)cccc1-c1cccs1 [h] strictly below 70 ng/insect?
**A:** Fulfilled

**Q:** Decide: Topical LD50 of Cc1c(COC(=O)[C@H]2[C@@H](C=C(Cl)Cl)C2(C)C)cccc1-c1cccs1 (relative stereo) [g] strictly below 70 ng/insect?
**A:** Fulfilled

**Q:** Decide: Topical LD50 of Cc1c(COC(=O)[C@H]2[C@@H](C=C(Cl)C(F)(F)F)C2(C)C)cccc1-c1ccccn1 (relative stereo) [s] strictly below 70 ng/insect?
**A:** Fulfilled

**Q:** Decide: Topical LD50 of Cc1c(COC(=O)[C@H]2[C@@H](C=C(Cl)C(F)(F)F)C2(C)C)cccc1-c1cccnc1 (relative stereo) [r] strictly below 70 ng/insect?
**A:** Not fulfilled

**Q:** Decide: Topical LD50 of Cc1c(COC(=O)C2C(C=C(Cl)Cl)C2(C)C)cccc1-c1ccco1 (mixture of isomers) [o] strictly below 70 ng/insect?
**A:** Not fulfilled

**Q:** Decide: Topical LD50 of CC1(C)[C@H](C=C(Cl)Cl)[C@@H]1C(=O)OCc1cccc(-c2ccsc2)c1 (relative stereo) [d] strictly below 70 ng/insect?
**A:** Not fulfilled

**Q:** Decide: Topical LD50 of Cc1c(COC(=O)[C@H]2[C@@H](C=C(Cl)C(F)(F)F)C2(C)C)cccc1-c1ccco1 (relative stereo) [m] strictly below 70 ng/insect?
**A:** Fulfilled

###

- Tested on: cabbage looper
- EXPERIMENTAL_DETAILS: Topical application, cabbage looper
- Type: in vivo, Tricoplusia ni
- TEST_CONDITIONS: CL
- Description: Topical Application: The compounds of this invention were tested for insecticidal activity against various insect species selected from southern armyworm (Spodoptera eridania), Mexican bean beetle, (Epilachna varivestis), milkweed bug (Oncopeltus fasciatus), and cabbage looper (Tricoplusia ni) by applying to the second or third dorsal thoracic segment of each larvae a one microliter droplet containing 5 mg/mL of test compound in acetone (5000 ng/insect). […]
Entries and their Topical LD50
Quick reminder: number only, in ng/insect, skip the unit.

# annotated cases, reported Topical LD50 shown
**Q:** Given Cc1c(COC(=O)[C@@H]2[C@H](C=C(Cl)Cl)C2(C)C)cccc1-c1cccs1 , state its recorded Topical LD50.
**A:** 136

**Q:** Given Cc1c(COC(=O)[C@H]2[C@@H](C=C(Cl)C(F)(F)F)C2(C)C)cccc1-c1ccco1 (relative stereo) , state its recorded Topical LD50.
**A:** 149

Continuing:
**Q:** Given Cc1c(COC(=O)[C@H]2[C@@H](C=C(Cl)Cl)C2(C)C)cccc1-c1ccco1 (relative stereo) , state its recorded Topical LD50.
**A:** 341

**Q:** Given Cc1c(COC(=O)[C@H]2[C@@H](C=C(Cl)C(F)(F)F)C2(C)C)cccc1-c1cccs1 (relative stereo) , state its recorded Topical LD50.
**A:** 74

**Q:** Given Cc1c(COC(=O)[C@H]2[C@@H](C=C(Br)Br)C2(C)C)cccc1-c1cccs1 (relative stereo) , state its recorded Topical LD50.
**A:** 371

**Q:** Given CC1(C)[C@H](C=C(Cl)Cl)[C@@H]1C(=O)OCc1cccc(-c2ccsc2)c1 (relative stereo) , state its recorded Topical LD50.
**A:** 2408

**Q:** Given Cc1c(COC(=O)C2C(C=C(Cl)Cl)C2(C)C)cccc1-c1ccco1 (mixture of isomers) , state its recorded Topical LD50.
**A:** 536

###

- Test system: pea aphid
- EXPERIMENTAL_DETAILS: Foliar application, pea aphid
- Assay type: in vivo
- TEST_CONDITIONS: Acyrthosiphon pisum; PA, foliar, 500 ppm, 48 hours; read-out: Foliar % Kill (ppm)
REPORTED_ENDPOINT: mortality at 500 ppm

# annotated cases, reported mortality at 500 ppm shown
**Q:** Given Cc1c(COC(=O)[C@H]2[C@@H](C=C(Cl)C(F)(F)F)C2(C)C)cccc1-c1ccccn1 (relative stereo) , state its recorded mortality at 500 ppm.
**A:** 100%

**Q:** Given Cc1c(COC(=O)[C@H]2[C@@H](C=C(Cl)C(F)(F)F)C2(C)C)cccc1-c1ccco1 (relative stereo) , state its recorded mortality at 500 ppm.
**A:** 100%

**Q:** Given CC1(C)[C@H](C=C(Cl)Cl)[C@@H]1C(=O)OCc1cccc(-c2ccsc2)c1 (relative stereo) , state its recorded mortality at 500 ppm.
**A:** 100%

**Q:** Given Cc1c(COC(=O)[C@H]2[C@@H](C=C(Cl)C(F)(F)F)C2(C)C)cccc1-c1cccnc1 (relative stereo) , state its recorded mortality at 500 ppm.
**A:** 95%

**Q:** Given CC1(C)[C@H](C=C(Cl)Cl)[C@@H]1C(=O)OCc1cccc(-c2ccco2)c1 (relative stereo) , state its recorded mortality at 500 ppm.
**A:** 40%

**Q:** Given Cc1c(COC(=O)[C@@H]2[C@H](C=C(Cl)Cl)C2(C)C)cccc1-c1cccs1 , state its recorded mortality at 500 ppm.
**A:** 100%

**Q:** Given Cc1c(COC(=O)[C@@H]2[C@H](C=C(Cl)Cl)C2(C)C)cccc1-c1cnccn1 (relative stereo) , state its recorded mortality at 500 ppm.
**A:** 100%

**Q:** Given Cc1c(COC(=O)[C@H]2[C@@H](C=C(Br)Br)C2(C)C)cccc1-c1cccs1 (relative stereo) , state its recorded mortality at 500 ppm.
**A:** 100%

**Q:** Given Cc1c(COC(=O)C2C(C=C(Cl)Cl)C2(C)C)cccc1-c1ccco1 (mixture of isomers) , state its recorded mortality at 500 ppm.
**A:** 100%

Now look at this one.
**Q:** Given Cc1c(COC(=O)[C@H]2[C@@H](C=C(Cl)C(F)(F)F)C2(C)C)cccc1-c1cnccn1 (relative stereo) , state its recorded mortality at 500 ppm.
**A:** 100%
